Origin of values: the supplement of paper PMC13380429

System: Caco-2
Assay: drug sensitivity score (DSS) for viability; higher = more toxic; extreme values may be limits of the assay
Settings: 72 h

- compound: "O=C1CCC[C@@H]2[C@H]3CCCN4CCC[C@@H](CN12)[C@@H]34 [matrine]"
  drug sensitivity score: 0
- compound: "CCOC(=O)c1c(C)[nH]c2ccc3c(c12)CN1CCc2cc(OC)ccc2C1O3 (stereo not drawn)"
  drug sensitivity score: 3.6
- compound: "OB1OCc2cc(Cl)ccc21 [AN2718]"
  drug sensitivity score: 0.4
- compound: "C=CCN1CCc2cc(O)c(O)cc2[C@H](c2ccccc2)C1"
  drug sensitivity score: 0.7
- compound: "Cc1ccc(S(=O)(=O)n2c(N)nc3ccccc32)cc1 [ML130]"
  drug sensitivity score: 0
- compound: "COc1ccc(/C=C/C(=O)/C=C(O)/C=C/c2ccc(OC)c(OC)c2)cc1OC [ASC-J9]"
  drug sensitivity score: 2.9
- compound: "CC(C(=O)O)c1ccc2c(c1)[nH]c1ccc(Cl)cc12 (stereo not drawn) [carprofen]"
  drug sensitivity score: 0
- compound: "CCOc1nc2cccc(C(=O)O)c2n1Cc1ccc(-c2ccccc2-c2noc(=O)[nH]2)cc1 [azilsartan]"
  drug sensitivity score: 0
- compound: "COc1ccc2c(O[C@@H]3C[C@H]4C(=O)N[C@]5(C(=O)NS(=O)(=O)C6CC6)C[C@H]5/C=C\\CCCCN(C)C(=O)[C@@H]4C3)cc(-c3nc(C(C)C)cs3)nc2c1C [simeprevir]"
  drug sensitivity score: 1.1
- compound: "O=C1O[C@H](CO)[C@@H](O)[C@H](O)[C@H]1O [gluconolactone]"
  drug sensitivity score: 0
- compound: "c1ccc2c(CCNc3ccc(Nc4ccncc4)cc3)c[nH]c2c1 [serdemetan]"
  drug sensitivity score: 0.8
- compound: "COc1cc(OC)cc(C(=O)NNC(=O)Nc2cccc3ccccc23)c1 [TC-O-9311]"
  drug sensitivity score: 0
- compound: "COc1c(O)cc2c(c1O)[C@@H]1O[C@H](CO)[C@@H](O)[C@H](O)[C@H]1OC2=O [bergenin]"
  drug sensitivity score: 4.5
- compound: "CCCc1c(OCCCCc2nnn[nH]2)ccc(C(C)=O)c1O [tomelukast]"
  drug sensitivity score: 0
- compound: "C[C@H](NC(=O)Cc1cc(F)cc(F)c1)C(=O)N[C@H](C(=O)OC(C)(C)C)c1ccccc1 [DAPT]"
  drug sensitivity score: 0
- compound: "Nc1ncnc(Nc2ccc(Cl)cc2)n1 [chlorazanil]"
  drug sensitivity score: 0
- compound: "C1CCC(/N=C(\\NC23CC4CC(CC(C4)C2)C3)N2CCOCC2)CC1"
  drug sensitivity score: 0
- compound: "CO[C@H]1O[C@@H]2O[C@@]3(C)CC[C@H]4[C@H](C)CC[C@@H]([C@H]1C)[C@@]24OO3 [artemether]"
  drug sensitivity score: 0.4
- compound: "CN(NC(=O)CC(=O)NN(C)C(=S)c1ccccc1)C(=S)c1ccccc1 [elesclomol]"
  drug sensitivity score: 32.2
- compound: "CN[C@H]1CN(c2ccc3c(=O)c(C(=O)O)cn(-c4nccs4)c3n2)C[C@@H]1OC [voreloxin]"
  drug sensitivity score: 3.7
- compound: "CN1C(=O)C(N2CCCCC2)S/C1=C\\C(=O)O (stereo not drawn) [ozolinone]"
  drug sensitivity score: 0
- compound: "Cc1ccnc(NC(=O)C(C)c2cccc(C(=O)c3ccccc3)c2)c1 (stereo not drawn) [piketoprofen]"
  drug sensitivity score: 0
- compound: "C[C@@]12C[C@@]3(O)O[C@@H](O1)[C@]1(COC(=O)c4ccccc4)[C@H]3C[C@@]12O[C@@H]1O[C@H](CO)[C@@H](O)[C@H](O)[C@H]1O [paeoniflorin]"
  drug sensitivity score: 0
- compound: "COc1cc(OC)c(/C=C2/C(=O)Nc3ccccc32)c(OC)c1 [IC261]"
  drug sensitivity score: 3.7
- compound: "CCOC(=O)[C@H](CCc1ccccc1)N[C@H]1CS[C@H](c2cccs2)CN(CC(=O)O)C1=O [temocapril]"
  drug sensitivity score: 0
- compound: "O=[N+]([O-])c1cn2c(n1)OC[C@@H](OCc1ccc(-c3ccc(OC(F)(F)F)cc3)nc1)C2 [TBA-354]"
  drug sensitivity score: 0
- compound: "COc1ccc2nc(NC(=O)Nc3ccccc3)sc2c1 [frentizole]"
  drug sensitivity score: 1.2
- compound: "O=c1c(-c2ccc(O)cc2)coc2c([C@@H]3O[C@H](CO)[C@@H](O)[C@H](O)[C@H]3O)c(O)ccc12 [kakonein]"
  drug sensitivity score: 0
- compound: "NC(=O)C1=CN([C@@H]2O[C@H](COP(=O)(O)OP(=O)(O)OC[C@H]3O[C@@H](n4cnc5c(N)ncnc54)[C@H](OP(=O)(O)O)[C@@H]3O)[C@@H](O)[C@H]2O)C=CC1 [NADPH]"
  drug sensitivity score: 0
- compound: "OC(c1cc(C(F)(F)F)nc2c(C(F)(F)F)cccc12)C1CCCCN1 (stereo not drawn) [mefloquine]"
  drug sensitivity score: 1.1
- compound: "CCCCCCN(CCCCCC)C(=O)Cc1c(-c2ccc(F)cc2)[nH]c2ccccc12 [FGIN-1-27]"
  drug sensitivity score: 2.2
- compound: "CC(C)(C)c1cc(/C=C(\\C#N)C(N)=S)cc(C(C)(C)C)c1O [tyrphostin-AG-879]"
  drug sensitivity score: 3.8
- compound: "C[C@]12CC[C@@H]3c4ccc(O)cc4C[C@@H](CCCCCCCCC[S+]([O-])CCCC(F)(F)C(F)(F)F)[C@H]3[C@@H]1CC[C@@H]2O (stereo partly drawn) [fulvestrant]"
  drug sensitivity score: 0.1
